- assay.summary: Plasma pharmacokinetics in patients
- test.context: human, plasma, oral, 10 mg, AUC0–24, Mean (SD), QD-7D 10 mg, Day 7, steady state, n=4
value.kind: AUC(0-t) (µM·h)
Numbers only here, please. The scale is µM·h.

I am curious: what AUC(0-t) value has been reported for `O=C(O)c1ccc(Nc2ncc3c(n2)-c2ccc(Cl)cc2C(c2c(F)cccc2F)=NC3)cc1` ?
7.53

---

- assay.summary: Plasma pharmacokinetics in patients
- test.context: human, plasma, oral, 60 mg, Tmax, Mean (SD), QID/M-14D 60 mg, Day 14, Dose 2, steady state, n=3
value.kind: Tmax (h)
Numbers only here, please. The scale is h.

I am curious: what Tmax value has been reported for O=C(O)c1ccc(Nc2ncc3c(n2)-c2ccc(Cl)cc2C(c2c(F)cccc2F)=NC3)cc1 [MLN8054] ?
2.3

---

- assay.summary: Plasma pharmacokinetics in patients
- test.context: human, plasma, oral, 60 mg, Cmax, Mean (SD), QID/M-14D 60 mg, Day 14, Dose 2, steady state, n=3
value.kind: Cmax (nM)
Numbers only here, please. The scale is nM.

I am curious: what Cmax value has been reported for `O=C(O)c1ccc(Nc2ncc3c(n2)-c2ccc(Cl)cc2C(c2c(F)cccc2F)=NC3)cc1` ?
2640

---

- assay.summary: Plasma pharmacokinetics in patients
- test.context: human, plasma, oral, 45 mg, Cmin, Mean (SD), QID-7D 45 mg, Day 7, Dose 2, steady state, n=3; 6 hours after the second dose
value.kind: concentration at 6 h
Quote the value and follow it with the unit of measurement.

I am curious: what concentration at 6 h value has been reported for O=C(O)c1ccc(Nc2ncc3c(n2)-c2ccc(Cl)cc2C(c2c(F)cccc2F)=NC3)cc1 [MLN8054] ?
1140 nM

---

- assay.summary: Plasma pharmacokinetics in patients
- test.context: human, plasma, oral, 70 mg, mean plasma MLN8054 concentration maintained over the course of treatment, QID/M-7D 70 mg cohort
value.kind: concentration at 7 days (nM)
Numbers only here, please. The scale is nM.

I am curious: what concentration at 7 days value has been reported for O=C(O)c1ccc(Nc2ncc3c(n2)-c2ccc(Cl)cc2C(c2c(F)cccc2F)=NC3)cc1 [MLN8054] ?
2000

---

- assay.summary: Plasma pharmacokinetics in patients
- test.context: human, plasma, oral, 30 mg, Cmax, Mean (SD), QD-7D 30 mg, Day 7, steady state, n=6
value.kind: Cmax
Quote the value and follow it with the unit of measurement.

I am curious: what Cmax value has been reported for `O=C(O)c1ccc(Nc2ncc3c(n2)-c2ccc(Cl)cc2C(c2c(F)cccc2F)=NC3)cc1` ?
2360 nM

---

- assay.summary: Plasma pharmacokinetics in patients
- test.context: human, plasma, oral, 60 mg, Tmax, QID/M-21D 60 mg, Day 21, Dose 2, steady state, individual data, n=1
value.kind: Tmax (h)
Numbers only here, please. The scale is h.

I am curious: what Tmax value has been reported for `O=C(O)c1ccc(Nc2ncc3c(n2)-c2ccc(Cl)cc2C(c2c(F)cccc2F)=NC3)cc1` ?
1

---

- assay.summary: Plasma pharmacokinetics in patients
- test.context: human, plasma, oral, 70 mg, AUC0–24, Mean (SD), QID/M-7D 70 mg, Day 7, Dose 2, steady state, n=3
value.kind: AUC(0-t) (µM·h)
Numbers only here, please. The scale is µM·h.

I am curious: what AUC(0-t) value has been reported for `O=C(O)c1ccc(Nc2ncc3c(n2)-c2ccc(Cl)cc2C(c2c(F)cccc2F)=NC3)cc1` ?
15.2

---

- assay.summary: Plasma pharmacokinetics in patients
- test.context: human, plasma, oral, 40 mg, AUC0–24, QD-7D 40 mg, Day 7, steady state, individual data, n=1
value.kind: AUC(0-t) (µM·h)
Numbers only here, please. The scale is µM·h.

I am curious: what AUC(0-t) value has been reported for `O=C(O)c1ccc(Nc2ncc3c(n2)-c2ccc(Cl)cc2C(c2c(F)cccc2F)=NC3)cc1` ?
24.2

---

- assay.summary: Plasma pharmacokinetics in patients
- test.context: human, plasma, oral, 30 mg, AUC0–24, Mean (SD), QD-7D 30 mg, Day 7, steady state, n=6
value.kind: AUC(0-t) (µM·h)
Numbers only here, please. The scale is µM·h.

I am curious: what AUC(0-t) value has been reported for `O=C(O)c1ccc(Nc2ncc3c(n2)-c2ccc(Cl)cc2C(c2c(F)cccc2F)=NC3)cc1` ?
28.2

---

- assay.summary: Plasma pharmacokinetics in patients
- test.context: human, plasma, oral, 35 mg, AUC0–24, Mean (SD), QID-7D 35 mg, Day 7, Dose 2, steady state, n=3
value.kind: AUC(0-t)
Quote the value and follow it with the unit of measurement.

I am curious: what AUC(0-t) value has been reported for `O=C(O)c1ccc(Nc2ncc3c(n2)-c2ccc(Cl)cc2C(c2c(F)cccc2F)=NC3)cc1` ?
9.71 µM·h

---

- assay.summary: Plasma pharmacokinetics in patients
- test.context: human, plasma, po
value.kind: half-life

I am curious: what half-life value has been reported for `O=C(O)c1ccc(Nc2ncc3c(n2)-c2ccc(Cl)cc2C(c2c(F)cccc2F)=NC3)cc1` ?
30 to 40 h

---

- assay.summary: Plasma pharmacokinetics in patients
- test.context: human, plasma, oral, 60 mg, AUC0–24, QID/M-21D 60 mg, Day 21, Dose 2, steady state, individual data, n=1
value.kind: AUC(0-t)
Quote the value and follow it with the unit of measurement.

I am curious: what AUC(0-t) value has been reported for `O=C(O)c1ccc(Nc2ncc3c(n2)-c2ccc(Cl)cc2C(c2c(F)cccc2F)=NC3)cc1` ?
7.03 µM·h

---

- assay.summary: Plasma pharmacokinetics in patients
- test.context: human, plasma, oral, 20 mg, Cmax, Mean (SD), QD-7D 20 mg, Day 7, steady state, n=3
value.kind: Cmax (nM)
Numbers only here, please. The scale is nM.

I am curious: what Cmax value has been reported for O=C(O)c1ccc(Nc2ncc3c(n2)-c2ccc(Cl)cc2C(c2c(F)cccc2F)=NC3)cc1 [MLN8054] ?
1180

---

- assay.summary: Plasma pharmacokinetics in patients
- test.context: human, plasma, oral, 55 mg, Cmax, Mean (SD), QID-7D 55 mg, Day 7, Dose 2, steady state, n=4
value.kind: Cmax (nM)
Numbers only here, please. The scale is nM.

I am curious: what Cmax value has been reported for `O=C(O)c1ccc(Nc2ncc3c(n2)-c2ccc(Cl)cc2C(c2c(F)cccc2F)=NC3)cc1` ?
2480

---

- assay.summary: Plasma pharmacokinetics in patients
- test.context: human, plasma, oral, 10 mg, Tmax, Mean (SD), QD-7D 10 mg, Day 7, steady state, n=4
value.kind: Tmax (h)
Numbers only here, please. The scale is h.

I am curious: what Tmax value has been reported for `O=C(O)c1ccc(Nc2ncc3c(n2)-c2ccc(Cl)cc2C(c2c(F)cccc2F)=NC3)cc1` ?
3.8

---

- assay.summary: Plasma pharmacokinetics in patients
- test.context: human, plasma, oral, 25 mg, Cmin, Mean (SD), QID-7D 25 mg, Day 7, Dose 2, steady state, n=6; 6 hours after the second dose
value.kind: concentration at 6 h (nM)
Numbers only here, please. The scale is nM.

I am curious: what concentration at 6 h value has been reported for `O=C(O)c1ccc(Nc2ncc3c(n2)-c2ccc(Cl)cc2C(c2c(F)cccc2F)=NC3)cc1` ?
720

---

- assay.summary: Plasma pharmacokinetics in patients
- test.context: human, plasma, oral, 70 mg, Cmax, Mean (SD), QID/M-7D 70 mg, Day 7, Dose 2, steady state, n=3
value.kind: Cmax
Quote the value and follow it with the unit of measurement.

I am curious: what Cmax value has been reported for `O=C(O)c1ccc(Nc2ncc3c(n2)-c2ccc(Cl)cc2C(c2c(F)cccc2F)=NC3)cc1` ?
3.28 µM

---

- assay.summary: Plasma pharmacokinetics in patients
- test.context: human, plasma, oral, 25 mg, AUC0–24, Mean (SD), QID-7D 25 mg, Day 7, Dose 2, steady state, n=6
value.kind: AUC(0-t) (µM·h)
Numbers only here, please. The scale is µM·h.

I am curious: what AUC(0-t) value has been reported for `O=C(O)c1ccc(Nc2ncc3c(n2)-c2ccc(Cl)cc2C(c2c(F)cccc2F)=NC3)cc1` ?
4.85

---

- assay.summary: Plasma pharmacokinetics in patients
- test.context: human, plasma, oral, 55 mg, Tmax, Mean (SD), QID-7D 55 mg, Day 7, Dose 2, steady state, n=4
value.kind: Tmax (h)
Numbers only here, please. The scale is h.

I am curious: what Tmax value has been reported for `O=C(O)c1ccc(Nc2ncc3c(n2)-c2ccc(Cl)cc2C(c2c(F)cccc2F)=NC3)cc1` ?
1.2

---

- assay.summary: Plasma pharmacokinetics in patients
- test.context: human, plasma, oral, 55 mg, Cmax, Mean (SD), QID/M-7D 55 mg, Day 7, Dose 2, steady state, n=3
value.kind: Cmax (nM)
Numbers only here, please. The scale is nM.

I am curious: what Cmax value has been reported for `O=C(O)c1ccc(Nc2ncc3c(n2)-c2ccc(Cl)cc2C(c2c(F)cccc2F)=NC3)cc1` ?
2310
